# assay.method.text: AUClast in Sprague-Dawley rat at 10 mg/kg, po measured upto 24 hrs by LC/MS-MS analysis
# Type: ADME, organism-based
# Parameters: time < 24 hr, dose 10 mg/kg, route oral
# details: in vivo
Response field label takes label 1 when AUC(0-t) at 24 h is strictly below 100 µM·h and label 0 in all other cases.

Cn1nccc1-c1cc(C(F)(F)F)ccc1[C@H]1CCc2cc(S(=O)(=O)Nc3ncccn3)ccc21: label 1

Request: For Cc1ccc(-c2cc(C(F)(F)F)ccc2[C@H]2CCOc3cc(S(=O)(=O)Nc4ncccn4)ccc32)cn1 , is the recorded AUC(0-t) at 24 h below the cut-off of 100 µM·h?
Result: label 0

Request: For Cn1nccc1-c1cc(C(F)(F)F)ccc1[C@H]1CCOc2cc(S(=O)(=O)Nc3ncccn3)ccc21 , is the recorded AUC(0-t) at 24 h below the cut-off of 100 µM·h?
Result: label 0

Request: For O=S(=O)(Nc1ncccn1)c1ccc2c(c1)OCC[C@@H]2c1ccc(C(F)(F)F)cc1N1CCOCC1 , is the recorded AUC(0-t) at 24 h below the cut-off of 100 µM·h?
Result: label 1

Request: For O=S(=O)(Nc1ncccn1)c1ccc2c(c1)OCC[C@@H]2c1ccc(C(F)(F)F)cc1-c1ccc(F)nc1 , is the recorded AUC(0-t) at 24 h below the cut-off of 100 µM·h?
Result: label 0
